Test system: HL-60(TB) leukemia
protocol details: NCI tumour cell line growth inhibition, 48 h
value type: log10(TGI) (log10 of the value in µM)
Remember, log10 of TGI, in µM.

Before answering, review these 4 worked examples.
C=C(C)[C@@H]1CC[C@]2(COCCCNCCCN)CC[C@]3(C)[C@H](CC[C@@H]4[C@@]5(C)CC[C@H](OCCCN)C(C)(C)[C@@H]5CC[C@]43C)[C@@H]12	0.92
COc1cc(OC)c(/C=C/C(=O)c2ccc(Nc3ncnc4ccccc34)cc2)c(OC)c1	0.34
COC1=CC(=O)C2C(C1=O)[C@@H]1c3ccccc3OC(C)(C)[C@H]21 (stereo partly specified)	1.53
CCCCCCCCCC(O)CC(=O)c1c(O)cccc1O (stereo unspecified)	1.76

Here is the next item to consider.
Incoming: Hello, please tell me recorded log10(TGI) for this one: C/C(=N\NC(=O)CC#N)C(CN1CCCCC1)C(c1ccccc1)c1c(O)c2ccccc2oc1=O (stereo unspecified)
Outgoing: 1.80

###

Test system: ACHN renal
protocol details: NCI tumour cell line growth inhibition, 48 h
value type: TGI

Oc1[nH]c(N=C2N=c3ccccc3=N2)c2ccccc12	29 µM
O=C1C=CC(=O)C2C1Cc1ccccc1C2c1ccccc1 (configuration not stated)	> 100 µM
CC1(C)OC2CC3COC(=O)C3CC2O1 (configuration not stated)	> 100 µM

Incoming: Tell me TGI reported for Cc1c(NC(=O)CCl)c(=O)oc2c(C)c3occc(=O)c3cc12
Outgoing: 80.5 µM

Incoming: Let me know recorded TGI for CC(C)(C)c1ccc(O)c(C(c2ccc([N+](=O)[O-])cc2)c2cc(C(C)(C)C)ccc2O)c1 , thanks.
Outgoing: 3.3 µM

Incoming: // Input: CCC[CH2][Sn]([CH2]CCC)([CH2]CCC)[O]C(=O)C(OC(C)=O)c1ccccc1 (configuration not stated) . Output its TGI only.
Outgoing: 0.274 µM

Incoming: Please supply the value of reported TGI for the item COC(=O)c1ccccc1NC(=S)NN(C)C
Outgoing: > 100 µM

Incoming: Answer with the recorded TGI for the molecule listed here: CCOC(=O)C1(C#N)C2(C#N)C(N)=NC(ON=C(C)C)(ON=C(C)C)C12C#N (configuration not stated)
Outgoing: > 100 µM

Incoming: Provide TGI value for the following molecule: COc1ccc(C2S/C(=C\c3cccc(OC)c3)C(=O)N2NC(=O)Cc2ccccc2)cc1 (configuration not stated)
Outgoing: > 100 µM

###

System: 786-0 renal
protocol details: NCI tumour cell line growth inhibition, 48 h; in the data active = GI50 below about 0.43 µM; inactive = the rest
Respond only with the outcome that fits, drawn from active, inactive

Record excerpt, results attached:
O=C1/C(=C/c2ccc(F)c(F)c2)CN(C(=O)C(Cl)Cl)C/C1=C\c1ccc(F)c(F)c1	active
C=C(C)[C@@H]1C/C=C(/CO)CC[C@H]2O[C@]2(C)CC/C=C(\C)CC1	inactive
O=C1CSC(c2ccc(-c3nc4ccccc4[nH]3)cc2)=N1	inactive
Cc1cc(C(=O)Nc2cc(Oc3ccc4nc(NC(=O)C5CC5)cn4n3)ccc2C)n(C)n1	inactive
COC1CC(C)C(OC)c2cc(O)cc(c2O)NC(=O)/C(C)=C/C=C\C(C)C(OC(N)=O)/C(C)=C\C(C)C1OC (centres undefined)	inactive
COc1cccc(OC(=O)c2ccc(C(F)(F)F)nc2Nc2c(C)cccc2Cl)c1	inactive
CCN1C(=O)N(CC)C2C1NN=c1s/c(=C\c3cccs3)c(=O)n12 (centres undefined)	inactive
COc1cccc(-n2ncc3c(N/N=C/c4ccc(C)cc4)ncnc32)c1	inactive

Incoming: Can you look up the reported call for COc1cc(OC)c(/C=C/C(=O)c2ccc(Nc3ncnc4ccccc34)cc2)c(OC)c1 for me?
Outgoing: inactive

###

Reported TGI values are given for each entry in this list.
System: NCI-H460 lung
protocol details: NCI tumour cell line growth inhibition, 48 h

# example entries with known answers
COCCOC(C)C(=O)C(O)S(=O)(=O)O (stereo unspecified)	> 100 µM
N/C(=N\S(=O)(=O)c1ccc(-c2ccccn2)s1)Nc1ccc(Cl)cc1	34.8 µM
Cc1ccc(S(=O)(=O)/N=C2/N(C)CCCS2(=O)=O)cc1	> 100 µM

Incoming: Fill in reported TGI for this entry: CC(=O)NNC(=S)/N=C\c1c(O)c2ccccc2oc1=O
Outgoing: > 100 µM

Incoming: Input COc1ccc(OC)c(NC2=NCCO2)c1 , output reported TGI.
Outgoing: > 100 µM

###

System: SNB-19 CNS
protocol details: NCI tumour cell line growth inhibition, 48 h
Quick reference: TGI of the listed items.
Hi! Could you send only the number? It should be in µM, unit omitted.

Incoming: Return TGI for the following molecule: CN(C)C[C@H]1CCn2c(c(C3=C(c4cn(C)c5ccccc45)C(=O)NC3=O)c3ccccc32)C1
Outgoing: 16.6

Incoming: Give TGI for the following molecule: C=C(C)[C@@H]1C/C=C(/CO)CC[C@H]2O[C@]2(C)CC/C=C(\C)CC1
Outgoing: 33.8

Incoming: Please supply the value of reported TGI for the item C/C(=N/NC(=S)Nc1cccc(Cl)c1)c1ccccn1
Outgoing: 16.9

Incoming: For the molecule O=c1nc(NC(c2ccccc2)(c2ccccc2)c2ccccc2)ccn1CCCl , give its measured TGI value.
Outgoing: 28.9

###

Tested on: HS 578T breast
protocol details: NCI tumour cell line growth inhibition, 48 h; in the data active = GI50 below about 0.43 µM; inactive = the rest
API: response.call in active, inactive

Solved entries (count: 6):
CCN1C(=O)N(CC)C2C1NN=c1s/c(=C\c3cccs3)c(=O)n12 (configuration not stated)	active
COC12C=C/C(=C(/C(=O)OCCSc3ccnn3C)C(=O)CCCCCCCCC3(OC)C=C/C(=C(/C(=O)OCCSc4ccnn4C)C(=O)CCCCCCCC1)O3)O2	inactive
O=C(O)/C=C/c1ccc[c]([Sb](=[O])([OH])[OH])c1	inactive
Cc1ccc(-c2c(C#N)[n+](=O)c3cc(F)c(F)cc3n2[O-])cc1	inactive
O=C1NCN(c2ccccc2)C12CCN(CCCC(c1ccc(F)cc1)c1ccc(F)cc1)CC2	inactive
O=P(O)(O)OCC1OC(n2cnc3c(NCc4ccco4)ncnc32)C(O)C1O (configuration not stated)	inactive

Turning now to a further record.
Incoming: Look up the recorded call for Oc1[nH]c(N=C2N=c3ccccc3=N2)c2ccccc12 in this test.
Outgoing: inactive

###

Tested on: SF-268 CNS
protocol details: NCI tumour cell line growth inhibition, 48 h; in the data active means GI50 below about 0.43 µM; inactive means the rest
Your response should consist of one outcome taken from Y = active, N = inactive

COc1cc(OC)c(/C=C/C(=O)c2ccc(Nc3ncnc4ccccc34)cc2)c(OC)c1	N
Cc1ccc2[nH]c3c(c2c1)N=c1ccccc1=NO3	N
COc1cccc(Sc2ccc([N+](=O)[O-])c3no[n+]([O-])c23)c1	N
c1cc(CN2CCCNCCNCCCNCC2)ccc1CN1CCCNCCNCCCNCC1	N
O=C1CSC(c2ccc(-c3nc4ccccc4[nH]3)cc2)=N1	N
CC(=Nc1ccccc1)C1=C(O)C(Cc2cccc(F)c2)NC1=O (centres undefined)	Y
CN(C)C[C@H]1CCn2c(c(C3=C(c4cn(C)c5ccccc45)C(=O)NC3=O)c3ccccc32)C1	N
Cc1ccc(-c2c(C#N)[n+](=O)c3cc(F)c(F)cc3n2[O-])cc1	N

Incoming: Identify the outcome logged in this assay for the compound shown: CCCCC[C@H]1CC=C2C(=O)C=C[C@@H]2CC=CCCCC(=O)O[C@@H](CCCCC)CC=C2C(=O)C=C[C@@H]2CC=CCCCC(=O)O[C@@H](CCCCC)CC=C2C(=O)C=C[C@@H]2CC=CCCCC(=O)O1
Outgoing: Y

###

Test system: CAKI-1 renal
protocol details: NCI tumour cell line growth inhibition, 48 h
Reported values of GI50 for individual entries

Reference set (3 entries):
O=C(O)/C=C/c1ccc[c]([Sb](=[O])([OH])[OH])c1	> 100000 nM
COc1cccc(Sc2ccc([N+](=O)[O-])c3no[n+]([O-])c23)c1	10500 nM
CCC#CC[C@H](O)C/C=C1/C(=O)C=C[C@@H]1C/C=C\CCCC(=O)OC	1480 nM

Incoming: Enter measured GI50, system CAKI-1 renal, for the compound shown: COc1ccc(C(C#N)=C2C=CC(=NO)C=C2)cc1
Outgoing: 4880 nM

Incoming: Report value: GI50, system: CAKI-1 renal, compound: Cc1cc(C(=O)Nc2cc(Oc3ccc4nc(NC(=O)C5CC5)cn4n3)ccc2C)n(C)n1
Outgoing: > 10000 nM

Incoming: Enter recorded GI50 with CAKI-1 renal for Cc1ccc(-c2c(C#N)[n+](=O)c3cc(F)c(F)cc3n2[O-])cc1 here.
Outgoing: 2480 nM

Incoming: Return reported GI50 for target or system CAKI-1 renal, item COc1ccc(-c2nsc3c2NC(=O)CC3c2ccc3c(c2)OCCO3)cc1 (centres undefined) .
Outgoing: 429 nM

Incoming: With CAKI-1 renal as the test system, provide measured GI50 for this compound: COC12C=C/C(=C(/C(=O)OCCSc3ccnn3C)C(=O)CCCCCCCCC3(OC)C=C/C(=C(/C(=O)OCCSc4ccnn4C)C(=O)CCCCCCCC1)O3)O2
Outgoing: 1180 nM

Incoming: Look up CAKI-1 renal data: GI50 of C=CCNc1nc(O)c(/C=C2\C=Nc3ncccc32)s1 , then report it.
Outgoing: 2220 nM
